system-tested: human 5α-reductase 2 (Homo sapiens, UniProt P31213)
Construct: predicted to be a hydrophobic polypeptide of 254 amino acids
assay-method-text: finasteride inhibition of 5α-reductase 2 expressed in human embryonic kidney 293 cells (FIG. 15B)
pIC50: −log10 of the molar value.
readout-type: pIC50

>  <smiles-structure>
CC(C)(C)NC(=O)[C@H]1CC[C@H]2[C@@H]3CC[C@H]4NC(=O)C=C[C@]4(C)[C@H]3CC[C@]12C

>  <endpoint-value>
~7.52

$$$$

###

system-tested: human 5α-reductase 2 (Homo sapiens, UniProt P31213, L89V)
Construct: predicted to be a hydrophobic polypeptide of 254 amino acids
Sequence (P31213 1-254 L89V): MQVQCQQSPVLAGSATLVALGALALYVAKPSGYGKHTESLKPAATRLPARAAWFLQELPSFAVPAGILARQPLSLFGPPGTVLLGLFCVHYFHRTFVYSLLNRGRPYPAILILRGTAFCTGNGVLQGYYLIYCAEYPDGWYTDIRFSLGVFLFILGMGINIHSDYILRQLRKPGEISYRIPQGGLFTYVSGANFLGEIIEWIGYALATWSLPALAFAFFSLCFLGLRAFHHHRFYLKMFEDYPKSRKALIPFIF
assay-method-text: finasteride inhibition of 5α-reductase 2 expressed in human embryonic kidney 293 cells (FIG. 15B)
protocol-conditions: 5α-reductase 2, 293 cells
Experimental: FIGS. 15A-15B. Characterization of expressed human 5α-reductase isozymes with regard to pH optima and finasteride inhibition. Expression plasmids containing the 5α-reductase 1 or 2 cDNAs (FIGS. 7 and 13, respectively) were transfected into human embryonic kidney 293 cells. […] In both panels, conversion into dihydrotestosterone was determined, after 10 minute incubations, by thin layer chromatography. Protein concentrations in cell extracts were measured as in Lowry, 1951. […]

>  <smiles-structure>
CC(C)(C)NC(=O)[C@H]1CC[C@H]2[C@@H]3CC[C@H]4NC(=O)C=C[C@]4(C)[C@H]3CC[C@]12C

>  <Ki>
~5 nM

$$$$

###

system-tested: human 5α-reductase 1 (Homo sapiens, UniProt P18405)
Sequence (P18405 whole entry): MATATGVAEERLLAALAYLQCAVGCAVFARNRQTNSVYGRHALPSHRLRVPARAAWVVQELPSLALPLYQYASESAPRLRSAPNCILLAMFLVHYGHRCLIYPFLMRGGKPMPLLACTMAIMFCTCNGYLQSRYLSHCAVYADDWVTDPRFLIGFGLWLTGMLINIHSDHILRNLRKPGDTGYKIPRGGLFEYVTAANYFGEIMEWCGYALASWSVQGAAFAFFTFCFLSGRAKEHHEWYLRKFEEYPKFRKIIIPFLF
pKi: −log10 of the molar value.

>  <compound>
CC(C)(C)NC(=O)[C@H]1CC[C@H]2[C@@H]3CC[C@H]4NC(=O)C=C[C@]4(C)[C@H]3CC[C@]12C [MK-906]

>  <system-tested>
human 5α-reductase 1 (Homo sapiens, UniProt P18405)

>  <pKi>
~6.64

$$$$

###

Target protein (sequence): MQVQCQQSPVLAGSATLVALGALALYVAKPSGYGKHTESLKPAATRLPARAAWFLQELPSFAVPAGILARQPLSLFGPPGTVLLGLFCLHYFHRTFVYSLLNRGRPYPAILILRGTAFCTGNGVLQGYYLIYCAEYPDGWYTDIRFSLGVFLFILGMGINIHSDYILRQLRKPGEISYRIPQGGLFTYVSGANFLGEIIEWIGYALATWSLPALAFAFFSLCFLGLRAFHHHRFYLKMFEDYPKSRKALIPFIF
pIC50: −log10 of the molar value.
readout-type: pIC50

>  <smiles-structure>
CC(C)(C)NC(=O)[C@H]1CC[C@H]2[C@@H]3CC[C@H]4NC(=O)C=C[C@]4(C)[C@H]3CC[C@]12C

>  <endpoint-value>
8.00

$$$$

###

system-tested: human 5α-reductase 1 (Homo sapiens, UniProt P18405)
readout-type: IC50

>  <smiles-structure>
CC(C)(C)NC(=O)[C@H]1CC[C@H]2[C@@H]3CC[C@H]4NC(=O)C=C[C@]4(C)[C@H]3CC[C@]12C

>  <endpoint-value>
~900 nM

$$$$
